Reference source: paper PMC7970798

- assay-system: T1, CRB1 C-terminal tetradecapeptide (endogenous PALS1 ligand)
- T1 peptide: Biotin-MWNLMPPPAMERLI
- procedure-summary: SPR
No end group written: not given here. *: point of attachment. Biotin = O=C1N[C@H]2[C@H](CS[C@H]2CCCCC(=O)*)N1
measure-name: Kd (µM)
Write it as a number; the unit µM goes unstated.

So what's the measured Kd for this one? [change] variant of the PDZ domain of PALS1 (domain or fragment) IVRIEKARDIPLGATVRNEMDSVIISRIVKGGAAEKSGLLHEGDEVLEINGIEIRGKDVNEVWDLLSDMHGTLTFVLIPSQ
18
